Consider the following compounds; for each one, report its Inhibition.
Test system: Plasmodium falciparum
Assay: GSK_TCMDC: Inhibition of Plasmodium falciparum 3D7 in whole red blood cells, using parasite LDH activity as an index of growth. Test compounds present at 2uM
Assay type: functional
Answers are plain numbers, in %.

{"COMPOUND": "CCOc1ccc(-c2nonc2NC(=O)c2ccccc2OC)cc1OCC", "TEST_RESULT": 100}
{"COMPOUND": "Cc1cc2cc(/C=C/C(=O)NC3CCC(CCN4CCc5ccc(C#N)cc5CC4)CC3)ccc2[nH]1.Cl (configuration not stated)", "TEST_RESULT": 85}
{"COMPOUND": "Br.Oc1ccc2nc(N3CCNCC3)nc(NCCCc3ccccc3)c2c1", "TEST_RESULT": 100}
{"COMPOUND": "CCC(NCc1ccc(-c2cncc(C(=O)NCC(C)C)c2)cc1)c1ccccc1.O=C(O)C(F)(F)F (configuration not stated)", "TEST_RESULT": 86}

// each compound listed below needs its Inhibition
1. O=C(Cc1ccccc1)NC(CCN1CCC(NC(=O)c2ccc(Cl)cc2)CC1)c1ccc(Cl)c(Cl)c1 (configuration not stated)
2. CC(=O)Nc1ccc(OCCCCN(Cc2ccccc2C(F)(F)F)c2ccc(C(F)(F)F)c(C#N)c2)c(Cl)c1

Result block:
1: 85; 2: 96

// each compound listed below needs its Inhibition
1. COc1cccc(-c2ccc(NC(=O)C3CCCN(Cc4cccc(OC)c4O)C3)cc2)c1 (configuration not stated)
2. Cc1c(S(=O)(=O)Nc2ccc3ccn(CCN(C)C)c3c2)sc2ccc(Cl)cc12.Cl
3. Cc1ccc(NC(=O)Cc2noc(CC3CCCN3C(=O)N[C@@H](C)c3ccccc3)n2)cc1 (some centres not stated)
4. CCCCN1Cc2c(n(CC(=O)Nc3ccccc3)c3cc(-c4ccccc4)nn3c2=O)C1=O
5. Clc1ccc(Nc2nc(Nc3ccc(Cl)c(Cl)c3)nc(Sc3nc4ccccc4[nH]3)n2)cc1Cl

Result block:
[98, 98, 95, 92, 99]

// each compound listed below needs its Inhibition
1. C=C[C@H]1CN(CCCCCCC)CC[C@H]1CCNc1ccnc2ccc(OC)cc12
2. CC(C)(C)c1ccc(CNC(=O)COc2ccc(-c3nnc(-c4cccc([N+](=O)[O-])c4)o3)cc2[N+](=O)[O-])cc1
3. Cc1nn(C)c(C)c1CN(Cc1nc(-c2cccc(Oc3ccccc3)c2)oc1C)C1CC1
4. Cc1ccc2c(=O)cc(CCc3cccc(F)c3F)n(CC(=O)N(Cc3ccc(-c4ccc(C(F)(F)F)cc4)cc3)C3CCN(C(C)C)CC3)c2n1.O=C(O)C(O)C(O)C(=O)O
5. CC(Oc1ccc(Cl)cc1Cl)c1nc(-c2ccc(NC(=O)c3ccco3)cc2)no1 (configuration not stated)
6. Cc1nc(N)nc(N)c1-c1cc(Cl)c(N)c(Cl)c1
7. COc1cc(CCCOc2c(N)nc(N)nc2N)cc(OC)c1OC
8. Cl.N#Cc1ccc2c(c1)CCN(CCC1CCC(NC(=O)c3cc4ccc(Cl)cc4[nH]3)CC1)C2 (configuration not stated)

Result block:
1: 95; 2: 93; 3: 100; 4: 100; 5: 92; 6: 94; 7: 88; 8: 100

// each compound listed below needs its Inhibition
1. CC(C)Nc1nc(NC2CCCCC2)nc(N2CCCCCCC2)n1
2. CCCn1c(Sc2ccc(C#N)c([N+](=O)[O-])c2)nnc1-c1cc(OC)cc(OC)c1
3. CN(CCCN(C)c1cc(NC(=O)c2ccc(F)cc2)ccn1)Cc1cccc(F)c1.O=C(O)C(F)(F)F

Result block:
86
98
83

Provenance of the data: ChEMBL document CHEMBL1157539
